- TARGET_OR_TEST_SYSTEM: Adenosine receptor A2b (Homo sapiens) (UniProt P29275)
- Sequence (P29275 whole entry): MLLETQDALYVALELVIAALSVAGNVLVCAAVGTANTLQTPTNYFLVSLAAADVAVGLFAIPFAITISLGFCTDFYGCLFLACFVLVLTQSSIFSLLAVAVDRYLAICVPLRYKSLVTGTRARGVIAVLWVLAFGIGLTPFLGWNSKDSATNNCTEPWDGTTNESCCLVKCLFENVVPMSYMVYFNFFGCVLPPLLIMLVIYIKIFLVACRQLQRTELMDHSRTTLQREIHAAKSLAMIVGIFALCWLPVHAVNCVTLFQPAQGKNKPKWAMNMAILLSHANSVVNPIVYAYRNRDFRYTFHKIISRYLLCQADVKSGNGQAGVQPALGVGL
- METHOD_DESCRIPTION: Inhibition at 50 uM on cAMP production induced by 50 uM 5`-(N-ethylcarboxamido)adenosine in CHO cell line transfected with human Adenosine A2B receptor cDNA
- Type: cell-based
Label MET when inhibition is at or above 80%; anything below gets NOT MET.

Check this molecule for inhibition at or above 80%: Nc1ccc(CC(=O)Nc2nc3ccc(Cl)cc3c3nc(-c4ccco4)nn23)cc1
MET

Check this molecule for inhibition at or above 80%: CC(=O)Nc1nc2ccc(Cl)cc2c2nc(-c3ccco3)nn12
MET

Check this molecule for inhibition at or above 80%: O=C(Nc1nc2ccc(Cl)cc2c2nc(-c3ccco3)nn12)c1cccc(I)c1
NOT MET

Check this molecule for inhibition at or above 80%: NCCCCC(=O)Nc1nc2ccc(Cl)cc2c2nc(-c3ccco3)nn12
MET

Check this molecule for inhibition at or above 80%: O=C(Nc1nc2ccc(Cl)cc2c2nc(-c3ccco3)nn12)c1ccccc1
NOT MET
